// reported self-cleavage for each item listed
B1: CPEB3 Ribozyme (parent)
chain: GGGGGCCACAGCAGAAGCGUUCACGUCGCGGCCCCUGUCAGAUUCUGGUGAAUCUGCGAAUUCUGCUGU

Variants of: B1
Experiment: self-cleavage, relative activity (ratio to wild type); higher = more cleavage; co-transcriptional
// print number alone

Solved cases below.
variant descriptor | self-cleavage
G3C U46C | 0.126
G5U U61C | 0.0722
U21A C33A | 0.808

Any idea what self-cleavage was measured for G37U C63A ?
0.239

For the variant C7A C45G , what self-cleavage is on record?
0.421

Looking for the measured self-cleavage of U46C G56U , can you help?
0.837

If you can, please state the reported self-cleavage value of C24G U26C .
0.386

State the recorded self-cleavage for this entry: C24U U61A
0.431

Any idea what its self-cleavage is? The variant is G3A U38G
0.113

Can you look up the measured self-cleavage of G37A G58C for me?
0.344

Which self-cleavage reading was recorded for the variant U43A C66A ?
0.416

Bench note: what self-cleavage did U20A A60G show?
0.146

# lookup: self-cleavage of C18G C35G
0.151

Give the measured self-cleavage of C34A C63U .
0.817

# input variant: A40C G41A ; wanted: its self-cleavage
0.333

I am curious: what self-cleavage value has been reported for G2A U36C ?
0.129

Query: self-cleavage; subject: U49C C63A
0.882

Which self-cleavage is reported for this variant? G2U G58C
0.0697

Any idea what self-cleavage was measured for C6A U49C ?
0.716

Query: self-cleavage; subject: A42U U43A
0.914

I would be grateful if you could share the reported self-cleavage for C22G A51G .
0.131

Give its self-cleavage value. Item: G3A C32G
0.176

Entry C39U A42C has what self-cleavage?
0.542

self-cleavage lookup needed for C33G U62A , thanks.
0.391

Recorded self-cleavage of C32G C35G , please.
0.303

Endpoint output: self-cleavage of U20C U26C . Value?
0.235

Data credit: the RNAGym collection of RNA variant scans (doi:10.7554/elife.80360)
